Assay: Plasma pharmacokinetics after 16 weeks of once daily administration (LC-MS/MS)
Type: in vivo, mouse
Details: Hexb (−/−) (Sandhoff model), mouse, plasma, po; Sand B, Hexb (−/−), 3 mg/kg/day, 16 weeks once daily; read-out: Cmax

SAMPLE SMILES	Cmax, ng/mL
OC[C@H]1[C@@H](O)[C@H](O)[C@@H](O)CN1CCCCCOCc1ccc(-c2ccccc2)c(F)c1	446

* * *

Assay: Plasma pharmacokinetics after 16 weeks of once daily administration (LC-MS/MS)
Assay type: in vivo, mouse
Conditions: Hexb (−/−) (Sandhoff mice), mouse, oral; plasma, 0.5 to 6 mg/kg/day, steady state; read-out: Cmax, range over doses

SAMPLE SMILES	Cmax
OC[C@H]1[C@@H](O)[C@H](O)[C@@H](O)CN1CCCCCOCc1ccc(-c2ccccc2)c(F)c1	100 to 674 ng/mL

* * *

Assay: Plasma pharmacokinetics after 16 weeks of once daily administration (LC-MS/MS)
Type: in vivo, mouse
Conditions: Hexb (−/−) (Sandhoff model), mouse, plasma, po; Sand D, Hexb (−/−), 1.5 mg/kg/day, 16 weeks once daily; read-out: Cmax
Method: At the end of the defined treatment period, mice were humanely euthanized by transcardial perfusion with Ringer solution after C02 asphyxiation. […]. Before perfusion, blood samples were collected via cardiac puncture into K2EDTA tubes and stored on wet ice. Whole blood was processed to plasma by centrifugation (3000 g for 10 minutes at 5° C.) within 30 min of collection and stored at −75° C. […]
ENDPOINT: Cmax (µg/mL)

SAMPLE SMILES	ENDPOINT	ASSAY VALUE
OC[C@H]1[C@@H](O)[C@H](O)[C@@H](O)CN1CCCCCOCc1ccc(-c2ccccc2)c(F)c1	Cmax	0.159

* * *

Experiment: Plasma pharmacokinetics after 16 weeks of once daily administration (LC-MS/MS)
Type: in vivo, mouse
Settings: Hexb (−/−) (Sandhoff model), mouse, plasma, po; Sand E, Hexb (−/−), 0.5 mg/kg/day, 16 weeks once daily; read-out: Cmax
ENDPOINT: Cmax (ng/mL)

SAMPLE SMILES	UNITS	ASSAY VALUE
OC[C@H]1[C@@H](O)[C@H](O)[C@@H](O)CN1CCCCCOCc1ccc(-c2ccccc2)c(F)c1	ng/mL	100

* * *

Molecular target: UniProt:Q9HCG7
Sequence (Q9HCG7 whole entry): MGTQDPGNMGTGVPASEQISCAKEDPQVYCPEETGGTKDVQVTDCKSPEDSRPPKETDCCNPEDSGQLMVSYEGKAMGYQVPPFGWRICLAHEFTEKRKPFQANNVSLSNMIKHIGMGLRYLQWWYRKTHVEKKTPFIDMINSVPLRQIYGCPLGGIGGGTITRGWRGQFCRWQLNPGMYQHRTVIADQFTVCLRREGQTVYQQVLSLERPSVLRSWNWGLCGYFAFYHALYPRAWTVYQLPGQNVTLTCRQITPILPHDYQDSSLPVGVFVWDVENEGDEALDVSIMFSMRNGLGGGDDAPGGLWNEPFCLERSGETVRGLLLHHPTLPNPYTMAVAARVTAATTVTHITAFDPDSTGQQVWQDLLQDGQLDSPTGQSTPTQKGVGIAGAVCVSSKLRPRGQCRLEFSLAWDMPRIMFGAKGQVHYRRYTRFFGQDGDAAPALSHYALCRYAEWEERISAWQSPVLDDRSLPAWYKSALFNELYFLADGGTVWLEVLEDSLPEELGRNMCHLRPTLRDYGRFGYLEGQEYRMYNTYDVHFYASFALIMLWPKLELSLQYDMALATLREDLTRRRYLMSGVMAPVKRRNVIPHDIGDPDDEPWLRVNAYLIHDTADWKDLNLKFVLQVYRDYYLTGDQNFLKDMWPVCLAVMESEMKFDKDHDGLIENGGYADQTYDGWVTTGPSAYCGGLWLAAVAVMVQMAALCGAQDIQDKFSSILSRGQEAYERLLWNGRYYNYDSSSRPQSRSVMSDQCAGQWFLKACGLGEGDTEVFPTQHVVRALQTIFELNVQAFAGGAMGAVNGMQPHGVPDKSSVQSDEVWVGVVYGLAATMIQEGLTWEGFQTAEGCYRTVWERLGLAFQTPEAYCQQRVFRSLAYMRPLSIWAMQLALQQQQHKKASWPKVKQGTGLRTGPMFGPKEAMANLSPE
pIC50: −log10 of the molar value.

SAMPLE SMILES	TARGET SYSTEM	pIC50
OC[C@H]1[C@@H](O)[C@H](O)[C@@H](O)CN1CCCCCOCc1ccc(-c2ccccc2)c(F)c1	UniProt:Q9HCG7	9.16

* * *

Assay: Plasma pharmacokinetics after 16 weeks of once daily administration (LC-MS/MS)
Type: in vivo, mouse
Settings: Hexb (−/−) (Sandhoff model), mouse, plasma, po; Sand E, Hexb (−/−), 0.5 mg/kg/day, 16 weeks once daily; read-out: AUC0-24
Experimental: At the end of the defined treatment period, mice were humanely euthanized by transcardial perfusion with Ringer solution after C02 asphyxiation. […]. Before perfusion, blood samples were collected via cardiac puncture into K2EDTA tubes and stored on wet ice. Whole blood was processed to plasma by centrifugation (3000 g for 10 minutes at 5° C.) within 30 min of collection and stored at −75° C. […]

MOLECULE	AUC(0-t) (ng·h/mL)
OC[C@H]1[C@@H](O)[C@H](O)[C@@H](O)CN1CCCCCOCc1ccc(-c2ccccc2)c(F)c1 [AZ-3102]	417

* * *

Experiment: Plasma pharmacokinetics after 16 weeks of once daily administration (LC-MS/MS)
Type: in vivo, mouse
Conditions: Hexb (−/−) (Sandhoff model), mouse, plasma, po; Sand A, Hexb (−/−), 6 mg/kg/day, 16 weeks once daily; read-out: AUC0-24
ENDPOINT: AUC(0-t) (ng·h/mL)

SAMPLE SMILES	ENDPOINT	UNITS	ASSAY VALUE
OC[C@H]1[C@@H](O)[C@H](O)[C@@H](O)CN1CCCCCOCc1ccc(-c2ccccc2)c(F)c1	AUC(0-t)	ng·h/mL	3610

* * *

Test: Plasma pharmacokinetics after 16 weeks of once daily administration (LC-MS/MS)
Type: in vivo, mouse
Details: Hexb (−/−) (Sandhoff model), mouse, plasma, po; Sand D, Hexb (−/−), 1.5 mg/kg/day, 16 weeks once daily; read-out: AUC0-24
Procedure: At the end of the defined treatment period, mice were humanely euthanized by transcardial perfusion with Ringer solution after C02 asphyxiation. […]. Before perfusion, blood samples were collected via cardiac puncture into K2EDTA tubes and stored on wet ice. Whole blood was processed to plasma by centrifugation (3000 g for 10 minutes at 5° C.) within 30 min of collection and stored at −75° C. […]

SAMPLE SMILES	UNITS	AUC(0-t)
OC[C@H]1[C@@H](O)[C@H](O)[C@@H](O)CN1CCCCCOCc1ccc(-c2ccccc2)c(F)c1	ng·h/mL	987

* * *

Assay: Plasma pharmacokinetics after 16 weeks of once daily administration (LC-MS/MS)
Format: in vivo, mouse
Settings: Hexb (−/−) (Sandhoff model), mouse, plasma, po; Sand A, Hexb (−/−), 6 mg/kg/day, 16 weeks once daily; read-out: Cmax

MOLECULE	UNITS	Cmax
OC[C@H]1[C@@H](O)[C@H](O)[C@@H](O)CN1CCCCCOCc1ccc(-c2ccccc2)c(F)c1 [AZ-3102]	ng/mL	674

* * *

Experiment: Brain pharmacokinetics after 16 weeks of once daily administration (LC-MS/MS)
Assay type: in vivo, mouse
Details: Hexb (−/−) and Hexb (+/−), mouse, brain, oral; all doses

COMPOUND	concentration at 24 h
OC[C@H]1[C@@H](O)[C@H](O)[C@@H](O)CN1CCCCCOCc1ccc(-c2ccccc2)c(F)c1 [AZ-3102]	> 20 ng/g

* * *

Assay: Plasma pharmacokinetics after 16 weeks of once daily administration (LC-MS/MS)
Format: in vivo, mouse
Conditions: Hexb (−/−) (Sandhoff model), mouse, plasma, po; Sand B, Hexb (−/−), 3 mg/kg/day, 16 weeks once daily; read-out: AUC0-24

SAMPLE SMILES	AUC(0-t)
OC[C@H]1[C@@H](O)[C@H](O)[C@@H](O)CN1CCCCCOCc1ccc(-c2ccccc2)c(F)c1	1980 ng·h/mL

* * *

Molecular target: GCS (Homo sapiens, UniProt Q16739)
Sequence (Q16739 whole entry, species assumed): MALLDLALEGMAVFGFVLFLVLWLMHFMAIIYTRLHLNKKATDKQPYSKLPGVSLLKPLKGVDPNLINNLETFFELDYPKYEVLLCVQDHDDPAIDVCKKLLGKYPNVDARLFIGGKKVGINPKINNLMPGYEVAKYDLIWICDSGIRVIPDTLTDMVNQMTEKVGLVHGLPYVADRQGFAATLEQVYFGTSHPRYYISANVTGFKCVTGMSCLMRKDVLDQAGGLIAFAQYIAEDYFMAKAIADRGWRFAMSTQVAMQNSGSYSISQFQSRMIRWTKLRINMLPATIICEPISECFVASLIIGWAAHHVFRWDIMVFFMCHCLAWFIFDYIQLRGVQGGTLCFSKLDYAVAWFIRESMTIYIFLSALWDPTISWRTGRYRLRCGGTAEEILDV
pIC50: −log10 of the molar value.

SAMPLE SMILES	pIC50
OC[C@H]1[C@@H](O)[C@H](O)[C@@H](O)CN1CCCCCOCc1ccc(-c2ccccc2)c(F)c1	8.60

* * *

Assay: Plasma pharmacokinetics after 16 weeks of once daily administration (LC-MS/MS)
Format: in vivo, mouse
Details: Hexb (−/−) (Sandhoff mice), mouse, oral; plasma, 0.5 to 6 mg/kg/day, steady state; read-out: mean AUC0-24, range over doses
ENDPOINT: AUC(0-t)

SAMPLE SMILES	ASSAY VALUE
OC[C@H]1[C@@H](O)[C@H](O)[C@@H](O)CN1CCCCCOCc1ccc(-c2ccccc2)c(F)c1	417 to 3610 ng·h/mL

* * *

Assay: Plasma pharmacokinetics after 16 weeks of once daily administration (LC-MS/MS)
Type: in vivo, mouse
Conditions: mouse, plasma, po; Het B, Hexb (+/−), 3 mg/kg/day, 16 weeks once daily; read-out: Cmax

COMPOUND	UNITS	Cmax
OC[C@H]1[C@@H](O)[C@H](O)[C@@H](O)CN1CCCCCOCc1ccc(-c2ccccc2)c(F)c1 [AZ-3102]	ng/mL	370
